Tested on: OCIM1
Assay: Caspase-3/7 activation assay
Format: cell-based
Conditions: OCI-M1, 6 h, read-out: AZD5991 6h EC50; OCIM1 (AML); caspase 3/7 activation
pEC50: −log10 of the molar value.
Attribute Measured: pEC50

[Q] Output measured pEC50 for this item: Cc1c2c(nn1C)CSCc1cc(n(C)n1)CSc1cc(c3ccccc3c1)OCCCc1c(C(=O)O)n(C)c3c-2c(Cl)ccc13 (atropisomer, axis not shown; (Ra)) [(Ra)-7]
[A] < 4.52

###

System: H460
Test: cells
Settings: Homo sapiens, NCI-H460, 6 h, read-out: AZD5991 6h EC50
Experimental: Cells were plated at 3000 cells/well in 384-well white plates in corresponding cell growth media. […] Caspase-3/7 activation was subsequently determined using a Caspase-Glo 3/7 Reagent (Promega) and viability was assayed using the CellTiter-Glo Reagent (Promega) as described in manufacturer’s instructions. Dose–response curves for caspase-3/7 activation and viability were plotted and analyzed (including EC50 and GI50 determination) using GraphPad Prism. […]
Attribute Measured: EC50

[Q] Return reported EC50. Input compound: Cc1c2c(nn1C)CSCc1cc(n(C)n1)CSc1cc(c3ccccc3c1)OCCCc1c(C(=O)O)n(C)c3c-2c(Cl)ccc13 (atropisomer, axis not shown; (Ra)) [(Ra)-7]
[A] > 30 µM
